Each recorded value in this set is attributed to PubChem BioAssay.

experiment: viability loss in pontine glioma line – cell-based, SU-DIPG-XVII, MIPE5.0, CellTiter-Glo, qHTS, dose response (AID 1347060); details: CellTiter-Glo ATP luminescence;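 on AC50: cells exposed to compound for 48 hours before viability readout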
Results filed as inconclusive are left out. Active and inactive are the calls of the source. Cut-off not given; nearly all actives show AC50 up to about 26 µM.
Valid outcomes are listed here; reply with one: true (1) = active, false (0) = inactive

Challenge: Dear colleague, could you share the recorded outcome for "Nc1nc2c(c(=O)[nH]1)N(C=O)[C@H](CNc1ccc(C(=O)N[C@@H](CCC(=O)O)C(=O)O)cc1)CN2" when you have a moment?
Response given: false (0)

Challenge: Dear colleague, could you share the recorded outcome for "CS[C@H]1SC[C@@H]2C(=O)N(C)[C@H](C(C)C)C(=O)OC[C@H](NC(=O)c3cnc4ccccc4n3)C(=O)N[C@H](C)C(=O)N(C)[C@H]1C(=O)N(C)[C@H](C(C)C)C(=O)OC[C@H](NC(=O)c1cnc3ccccc3n1)C(=O)N[C@H](C)C(=O)N2C" when you have a moment?
Response given: true (1)

Challenge: Dear colleague, could you share the recorded outcome for "CCN(CC)CCCCNc1ncc2c(n1)N(C)C(=O)N(c1c(Cl)c(OC)cc(OC)c1Cl)C2" when you have a moment?
Response given: true (1)

Challenge: Dear colleague, could you share the recorded outcome for "C[C@@H]1CCN(C(=O)N2CCCC2)C[C@@H]1N(C)c1ncnc2[nH]ccc12" when you have a moment?
Response given: false (0)

Challenge: Dear colleague, could you share the recorded outcome for "CCC(=O)NC[C@H](Cc1ccc(OCCc2nc(-c3ccccc3)oc2C)cc1)N/C(C)=C\C(=O)c1ccc(C(F)(F)F)cc1" when you have a moment?
Response given: true (1)

Challenge: Dear colleague, could you share the recorded outcome for "CCS(=O)(=O)c1cccc(-c2cc(C(=O)NC3CCN(C)CC3)c(C)c3[nH]c4ncc(C)cc4c23)c1" when you have a moment?
Response given: true (1)

Challenge: Dear colleague, could you share the recorded outcome for "CN(C)c1ccccc1CN1CCCN(Cc2ccccc2N(C)C)C1c1ccncc1" when you have a moment?
Response given: true (1)

Challenge: Dear colleague, could you share the recorded outcome for "C=CC(=O)Nc1cc2c(Nc3ccc(F)c(Cl)c3)ncnc2cc1C#CC(C)(C)N1CCN(C)CC1" when you have a moment?
Response given: true (1)

Challenge: Dear colleague, could you share the recorded outcome for "COc1ccc2cc(OCC3(C(=O)O)CN(C(=O)c4ccc(F)cc4)C3)ccc2c1" when you have a moment?
Response given: false (0)

Challenge: Dear colleague, could you share the recorded outcome for "COc1cc2c(NC3CCN(C)CC3)nc(N3CCCN(C)CC3)nc2cc1OCCCN(C)C" when you have a moment?
Response given: false (0)

Challenge: Dear colleague, could you share the recorded outcome for "C[N+](C)([O-])CCNc1ccc(NCC[N+](C)(C)[O-])c2c1C(=O)c1c(O)ccc(O)c1C2=O" when you have a moment?
Response given: true (1)

Challenge: Dear colleague, could you share the recorded outcome for "CC#CCn1c(N2CCC[C@@H](N)C2)nc2c1c(=O)n(Cc1nc(C)c3ccccc3n1)c(=O)n2C" when you have a moment?
Response given: false (0)

Challenge: Dear colleague, could you share the recorded outcome for "C=CC(=O)Nc1cccc(Oc2nc(Nc3ccc(N4CCN(C)CC4)cc3)nc3ccsc23)c1" when you have a moment?
Response given: true (1)

Challenge: Dear colleague, could you share the recorded outcome for "C#CC[C@H](c1nc2cc(Cl)ccc2c(=O)n1Nc1ccccc1)N(CCCN)C(=O)c1cccc(Cl)c1F" when you have a moment?
Response given: true (1)

Challenge: Dear colleague, could you share the recorded outcome for "CCN(CC)CCNc1ccc(C)c2sc3ccccc3c(=O)c12" when you have a moment?
Response given: true (1)

Challenge: Dear colleague, could you share the recorded outcome for "CC1(C)CCC(c2ccc(Cl)cc2)=C(CN2CCN(c3ccc(C(=O)NS(=O)(=O)c4ccc(N[C@H](CCN5CCOCC5)CSc5ccccc5)c(S(=O)(=O)C(F)(F)F)c4)cc3)CC2)C1" when you have a moment?
Response given: true (1)
